Target: UniProt:P24941
Experiment: Enzyme Assay
Settings: concentration not given here
Measured Attribute: inhibition
Lab note: write values as number then unit, every time.

{"Smiles Notation": "Cn1ncc(C(=O)N2CCC(Nc3nc(N)c(C(=O)c4c(F)cccc4F)s3)CC2)c1[N+](=O)[O-]", "Test Target": "UniProt:P24941", "inhibition": "40%"}
{"Smiles Notation": "CCN(CC)C(=O)N1CCC(Nc2nc(N)c(C(=O)c3c(F)cccc3F)s2)CC1", "Test Target": "UniProt:P24941", "inhibition": "-43%"}

Switching to the query record.
Sure, the documented inhibition for `Nc1nc(NC2CCN(C(=O)/C=C/c3cccc(F)c3)CC2)sc1C(=O)c1c(F)cccc1F` is 70%

====

Target: CDK2 (human) (UniProt P24941)
Test: Enzyme Assay
Details: concentration not given here
So I've got a bunch of compounds here, and I need their inhibition values.

{"Smiles Notation": "CCOc1cccc(/C=C/C(=O)N2CCC(Nc3nc(N)c(C(=O)c4c(F)cccc4F)s3)CC2)c1", "Measured Attribute": "inhibition", "Result": "50%"}
{"Smiles Notation": "Nc1nc(NC2CCN(C(=O)CC3=CCCCC3)CC2)sc1C(=O)c1c(F)cccc1F", "Measured Attribute": "inhibition", "Result": "51%"}

Switching to the query record.
Sure, the documented inhibition for `CC(C)(O)C(=O)N1CCC(Nc2nc(N)c(C(=O)c3c(F)cccc3F)s2)CC1` is 50%

====

Target: CDK2 (human) (UniProt P24941)
Assay: Enzyme Assay
Conditions: concentration not given here
Measured Attribute: inhibition (%)
One number for each entry, in %.

{"Compound": "COc1cc(C(O)C(=O)N2CCC(Nc3nc(N)c(C(=O)c4c(F)cccc4F)s3)CC2)ccc1O (configuration not stated)", "Test Target": "CDK2 (human) (UniProt P24941)", "inhibition / %": 26}
{"Compound": "COC1CCCC(C(=O)N2CCC(Nc3nc(N)c(C(=O)c4c(F)cccc4F)s3)CC2)C1 (configuration not stated)", "Test Target": "CDK2 (human) (UniProt P24941)", "inhibition / %": 63}
{"Compound": "Nc1nc(NC2CCN(C(=O)c3cc(F)cc(F)c3)CC2)sc1C(=O)c1c(F)cccc1F", "Test Target": "CDK2 (human) (UniProt P24941)", "inhibition / %": 80}
{"Compound": "Nc1nc(NC2CCN(C(=O)c3ccccc3C(F)(F)F)CC2)sc1C(=O)c1c(F)cccc1F", "Test Target": "CDK2 (human) (UniProt P24941)", "inhibition / %": -12}
{"Compound": "Nc1nc(NC2CCN(C(=O)c3ccc4c(c3)C(=O)OC4=O)CC2)sc1C(=O)c1c(F)cccc1F", "Test Target": "CDK2 (human) (UniProt P24941)", "inhibition / %": 53}

Can you give me inhibition for all of these, one by one?
1. CC(C)[C@@H]1CC[C@@H](C)C[C@H]1OC(=O)N1CCC(Nc2nc(N)c(C(=O)c3c(F)cccc3F)s2)CC1
2. Nc1nc(NC2CCN(C(=O)OCc3ccccc3)CC2)sc1C(=O)c1c(F)cccc1F
3. Nc1nc(NC2CCN(C(=O)c3ccc(F)c(Cl)c3)CC2)sc1C(=O)c1c(F)cccc1F
4. COc1ccccc1C(O)C(=O)N1CCC(Nc2nc(N)c(C(=O)c3c(F)cccc3F)s2)CC1 (configuration not stated)
5. Nc1nc(NC2CCN(C(=O)c3ccc4[nH]cnc4c3)CC2)sc1C(=O)c1c(F)cccc1F
6. CC[C@H](C(=O)N1CCC(Nc2nc(N)c(C(=O)c3c(F)cccc3F)s2)CC1)c1ccccc1
7. COc1ccc(C(=O)N2CCC(Nc3nc(N)c(C(=O)c4c(F)cccc4F)s3)CC2)c(OC)c1

Output:
-45
-32
48
27
72
42
-11
